- Organism: Danio rerio
- assay_overview: Prevention of heart failure in verapamil treated zebrafish AB assessed as efficacy on heart dilation at 0.5 ug/ml preincubated for 4.5 hrs followed by verapamil treatment and measured after 30 mins relative to verapamil alone
- Format: functional
Label YES when Activity < 60%; otherwise NO.

Worked set:
molecule	assigned_category
C=C([C@@H]1CC[C@]2(C)[C@@H]1CC[C@@H]1[C@]34CC[C@@](O)(OC3)C(C)(C)[C@@H]4CC[C@]12C)[C@@H]1OC(=O)C(C)=C[C@H]1O	NO
C[C@H]1O[C@@H](O[C@H]2[C@@H](O)C[C@H](O[C@H]3[C@@H](O)C[C@H](O[C@H]4CC[C@@]5(C)[C@H](CC[C@@H]6[C@@H]5C[C@@H](O)[C@]5(C)[C@@H](C7=CC(=O)OC7)CC[C@]65O)C4)O[C@@H]3C)O[C@@H]2C)C[C@H](O)[C@@H]1O [DIGOXIN]	YES
CCCCC1=NC2(CCCC2)C(=O)N1Cc1ccc(-c2ccccc2-c2nnn[nH]2)cc1 [IRBESARTAN]	YES
C=C([C@@H]1CC=C(C)C(=O)O1)[C@@H]1CC[C@]2(C)[C@@H]1CC[C@@H]1[C@@]34CO[C@](O)([C@@H](O)C3)C(C)(C)[C@@H]4CC[C@]12C	NO
NS(=O)(=O)c1cc2c(cc1Cl)NCNS2(=O)=O [HYDROCHLOROTHIAZIDE]	YES

Could you now consider this next molecule?
Is the reported Activity for "C=C(CC/C=C(/C)C(=O)O)[C@@H]1CC[C@]2(C)[C@@H]1CC[C@@H]1[C@]34CC[C@@](O)(OC3)C(C)(C)[C@@H]4CC[C@]12C" strictly below 60%?
NO

====

- assay_overview: Toxicity in zebrafish assessed as induction of adverse effect at 0.5 ug/ml in presence of verapamil
- Set-up: species or system Danio rerio
- run_conditions: in vivo
value_type: Activity

C=C([C@@H]1CC=C(C)C(=O)O1)[C@@H]1CC[C@]2(C)[C@@H]1CC[C@@H]1[C@@]34CO[C@](O)([C@@H](O)C3)C(C)(C)[C@@H]4CC[C@]12C Non-Toxic
C=C(CCC=C(CO)CO)[C@@H]1CC[C@]2(C)[C@@H]1CC[C@@H]1[C@@]3(C)CCC(=O)C(C)(C)[C@@H]3CC[C@]12C Non-Toxic
C/C(=C/CC/C(CO)=C1\CC[C@]2(C)[C@@H]1CC[C@@H]1[C@@]3(C)CCC(=O)C(C)(C)[C@@H]3CC[C@]12C)CO Non-Toxic

====

Reported Activity values for the following compounds.
- Species: Danio rerio
- assay_overview: Antithrombotic activity in ponatinib treated zebrafish AB assessed as preventive efficacy on thrombosis at 0.5 ug/ml incubated for 18 hrs by O-dianisidine staining based assay relative to ponatinib alone
- Format: functional
// note: answer is a bare numeric in %

Here's what some known entries look like.
C=C(CC/C=C(/C)C(=O)O)[C@@H]1CC[C@]2(C)[C@@H]1CC[C@@H]1[C@]34CC[C@@](O)(OC3)C(C)(C)[C@@H]4CC[C@]12C 24
C=C([C@@H]1CC[C@]2(C)[C@@H]1CC[C@@H]1[C@]34CC[C@@](O)(OC3)C(C)(C)[C@@H]4CC[C@]12C)[C@@H]1OC(=O)C(C)=C[C@H]1O 10
C=C([C@@H]1CC=C(C)C(=O)O1)[C@@H]1CC[C@]2(C)[C@@H]1CC[C@@H]1[C@@]3(C)CCC(=O)C(C)(C)[C@@H]3CC[C@]12C 65
C=C([C@@H]1CC=C(C)C(=O)O1)[C@@H]1CC[C@]2(C)[C@@H]1CC[C@@H]1[C@@]34CO[C@](O)(C[C@H]3O)C(C)(C)[C@@H]4CC[C@]12C 68

Continue with the compound presented below.
Entry under review: "C=C([C@@H]1CC=C(C)C(=O)O1)[C@@H]1CC[C@]2(C)[C@@H]1CC[C@@H]1[C@@]34CO[C@](O)([C@@H](O)C3)C(C)(C)[C@@H]4CC[C@]12C" . Reported Activity?
76

====

Reported Activity values for a set of compounds
- Organism: Danio rerio
- assay_overview: Prevention of heart failure in verapamil treated zebrafish AB assessed as efficacy on heart dilation at 0.5 ug/ml preincubated for 4.5 hrs followed by verapamil treatment and measured after 30 mins relative to verapamil alone
- Assay type: functional
Kindly provide the numeric value in % only, without the unit symbol.

Some solved cases for reference:
compound	value_type	units_of_measure	observed_value
C=C([C@@H]1CC=C(C)C(=O)O1)[C@@H]1CC[C@]2(C)[C@@H]1CC[C@@H]1[C@@]3(C)CCC(=O)C(C)(C)[C@@H]3CC[C@]12C	Activity	%	55
COCCc1ccc(OCC(O)CNC(C)C)cc1 (stereo not drawn)	Activity	%	34

Below: the item to evaluate.
Entry "C=C([C@@H]1CC=C(C)C(=O)O1)[C@@H]1CC[C@]2(C)[C@@H]1CC[C@@H]1[C@@]34CO[C@](O)(C[C@H]3O)C(C)(C)[C@@H]4CC[C@]12C" : reported Activity = ?
66
